Each entry below carries its reported melting point.

Completed entries (count: 3):
compound: CC(=O)C=Cc1c(-c2ccccc2)nn2ccccc12
melting point: 134 to 136 °C
//
compound: NS(=O)(=O)c1cc2c(cc1Cl)C(=O)NC2=O
melting point: 121 to 125 °C
//
compound: OCc1cc(O)ccc1/C=C/c1ccc(O)cc1
melting point: 223 to 225 °C

Record Cc1c(-c2ccncc2)[nH]c2ccc(C3=NNC(=O)CC3C)cc12 (stereo not given) , field melting point: 233 to 235 °C

Lab note: ClCc1ccc2cc(Cl)ccc2c1 gave melting point of 107 to 110 °C

Given item Cc1cc(C#C[Si](C(C)C)(C(C)C)C(C)C)n(-c2ccc([N+](=O)[O-])cc2)n1 , the value recorded as its melting point is 71 to 73 °C

Sure, the documented melting point for Cc1ccc(Cc2cnc(CCCOc3cccc(CN4CCCCC4)c3)[nH]c2=O)cn1 is 137 to 138 °C

Memo: Cc1ccsc1-c1nc2cc([N+](=O)[O-])ccc2o1 , reported melting point: 174 to 176 °C

Measured melting point, COCC(C)NC1=NS(=O)(=O)c2cnccc2N1 (stereo not given) : 174 to 178 °C

Briefly, melting point measured for Cc1ccc(NCc2ccc(N(C)C)cc2)c(C)c1 : 79 to 80 °C

Lookup result for COc1ccc(C(CC(N)=O)N2C(=O)c3ccccc3C2=O)cc1 (stereo not given) ; measured melting point: 183 to 188 °C
